- EXPERIMENTAL TARGET: T1, Alpha-B-crystallin CTR CTR (Homo sapiens, UniProt P02511)
- T1 chain: ERTIPITRE
pKd: −log10 of the molar value.
METRIC: pKd

Exam item: Record request: pKd value, item Alpha-B-crystallin ACD ACD (protein) GLSEMRLEKDRFSVNLDVKHFSPEELKVKVLGDVIEVHGKHEERQDEHGFISREFHRKYRIPADVDPLTITSSLSSDGVLTVNGPRKQV
Marked response: ~4.00
